test system: U-251; assay: NCI tumour cell line growth inhibition, 48 h
Activity calls are given as the source filed them. Rule as the data show it: active = GI50 up to about 1.1 µM and inactive = higher.
Reported GI50 values for a set of compounds

- COMPOUND: "CC1=NN(c2cccc(Cl)c2)C2(C1=Cc1ccc(N(C)C)cc1)C(Cl)C(=O)N2c1nc2ccccc2s1 (stereo unspecified)"
  GI50: "53.7 µM (inactive)"
- COMPOUND: "Cc1ccc(/N=C2/SC(c3ccc(C)cc3)(c3ccc(C)cc3)c3ccccc32)cc1"
  GI50: "> 100 µM (inactive)"
- COMPOUND: "N#CC1C2CCC3(CC2CCN1C(=O)c1ccccc1)OCCO3 (stereo unspecified)"
  GI50: "> 100 µM (inactive)"
- COMPOUND: "S=c1oc(CCCCCCCCc2nn(CNc3ccccc3)c(=S)o2)nn1CNc1ccccc1"
  GI50: "> 100 µM (inactive)"
- COMPOUND: "CCOC(=O)/C(C(=O)c1ccccc1)=C1\\N[C@H](C(=O)OCC)CS1"
  GI50: "> 100 µM (inactive)"
- COMPOUND: "COC(=O)[C@H](CCSC)NC(=O)c1ccc(CNC(=O)/C=C/c2cccc(Oc3ccccc3)c2)cc1"
  GI50: "> 100 µM (inactive)"
- COMPOUND: "CCCN1C(=O)/C(=C\\c2ccc(OC)c(OC)c2)S/C1=N\\c1ccccc1"
  GI50: "27.8 µM (inactive)"
- COMPOUND: "CC1C(OS(=O)(=O)c2ccc3nc(S)sc3c2)CC2C3(C)CCC2(C(C)C(=O)O)C(O)C13 (stereo unspecified)"
  GI50: "16.2 µM (inactive)"
- COMPOUND: "COC1OC(OC)C2C(c3c(C)cc(C)cc3C)=NOC12 (stereo unspecified)"
  GI50: "20.3 µM (inactive)"
- COMPOUND: "O=C(Nc1ccccc1F)c1cc2ccc(O)cc2o/c1=N\\c1cccc(C(F)(F)F)c1"
  GI50: "3.73 µM (inactive)"
- COMPOUND: "O=C1c2ccccc2OP(=O)(OCC(F)(F)F)OC1(C(F)(F)F)C(F)(F)F (stereo unspecified)"
  GI50: "> 100 µM (inactive)"

* * *

tested on: M19-MEL; assay: NCI tumour cell line growth inhibition, 48 h
Active and inactive are the calls of the source. No stated cut-off is given here; in the data, active = GI50 up to about 1.1 µM and inactive = higher.
Labels: yes (1) for active, no (0) for inactive

- MOLECULE: "Cc1cccc(C(=O)O)c1C(=O)c1cccc2ccccc12"
  GROUP LABEL: "no (0)"
- MOLECULE: "COC1OC(OC)C2C(c3c(C)cc(C)cc3C)=NOC12 (stereo not drawn)"
  GROUP LABEL: "no (0)"
- MOLECULE: "COc1ccc(C(C#N)Cc2cc(OC)c(OC)c(OC)c2)cc1 (stereo not drawn)"
  GROUP LABEL: "no (0)"
- MOLECULE: "N#Cc1ccc(C(C2C(=O)NC(=O)NC2=O)C2C(=O)NC(=O)NC2=O)cc1"
  GROUP LABEL: "no (0)"
- MOLECULE: "CCCC1N2CCCCC2[C@@H]2c3[nH]c4ccccc4c3CCN12 (stereo partly drawn)"
  GROUP LABEL: "no (0)"
- MOLECULE: "O=C(N/N=C/c1cc(Br)ccc1O)N/N=C/c1cc(Br)ccc1O"
  GROUP LABEL: "no (0)"
- MOLECULE: "N/N=C1\\C(=O)N(Cc2ccccc2)C(=O)C1C(=O)NCc1ccccc1 (stereo not drawn)"
  GROUP LABEL: "no (0)"
- MOLECULE: "N#CCCc1nc2ccc(Br)cc2c(=O)n1CCO"
  GROUP LABEL: "no (0)"
- MOLECULE: "CC(C)Cc1ccc(C(C)/C=C2\\CCC(CN3CCCCC3)C2=O)cc1 (stereo not drawn)"
  GROUP LABEL: "no (0)"
- MOLECULE: "CSc1ccc(Cc2cc(C(C)(C)C)cc(C(C)(C)C)c2O)cc1"
  GROUP LABEL: "no (0)"
- MOLECULE: "CC1=C(C(=O)Nc2cccc(Cl)c2)C(c2ccccc2O)C(C(=O)Nc2cccc(Cl)c2)=C(C)N1"
  GROUP LABEL: "no (0)"
- MOLECULE: "O=C(O)CCc1nn2c(nc1=O)sc1ccc3ccccc3c12"
  GROUP LABEL: "no (0)"
- MOLECULE: "O=C1C(=O)N(c2ccc(Cl)cc2)C(=O)C(=O)C1c1nc2ccccc2s1"
  GROUP LABEL: "no (0)"
- MOLECULE: "CSc1nc(NC2OC(COC(C)=O)C(OC(C)=O)C(OC(C)=O)C2OC(C)=O)c(/N=C\\C=N/c2c(NC3OC(COC(C)=O)C(OC(C)=O)C(OC(C)=O)C3OC(C)=O)nc(SC)n(C)c2=O)c(=O)n1C (stereo not drawn)"
  GROUP LABEL: "no (0)"
- MOLECULE: "O=C(/C=C/c1ccc(-c2ccccc2)cc1)c1ccccc1"
  GROUP LABEL: "no (0)"
- MOLECULE: "COCC(=O)CP(=O)(OC)OC"
  GROUP LABEL: "no (0)"
- MOLECULE: "COC(=O)/C(=N\\Nc1nnc(C)n1N)C(C#N)c1ccc(Cl)cc1 (stereo not drawn)"
  GROUP LABEL: "no (0)"
- MOLECULE: "O=C1C2=C(SCCS2)C(=O)c2ccccc21"
  GROUP LABEL: "yes (1)"
